# System under test: recombinant human PAI-1 (Homo sapiens)
# Construct: purchased Molecular Innovations, Inc
# Run description: Test Example 2: human PAI-1 inhibitory activity (tPA fluorogenic substrate, pH 7.4 HEPES buffer)
# Assay type: biochemical
# Conditions: human PAI-1; compound concentration 0.1 μM
Reported property: Inhibition Rate of PAI-1 Activity (%)

I: O=C(O)/C=C/c1ccc(-c2ccc(OC(F)(F)F)cc2)cc1OC(c1ccccc1)c1ccccc1
II: O=C(O)CCc1ccc(-c2ccc(OC(F)(F)F)cc2)cc1OC(c1ccccc1)c1ccccc1
## Input Task for the reader: decide whether I or II has the larger Inhibition Rate of PAI-1 Activity (%). The response must carry the label of the picked entry.
## Output II
(II: 6%, I: 2%)

* * *

# System under test: recombinant human PAI-1 (Homo sapiens)
# Construct: purchased Molecular Innovations, Inc
# Run description: Test Example 2: human PAI-1 inhibitory activity (tPA fluorogenic substrate, pH 7.4 HEPES buffer)
# Assay type: biochemical
# Conditions: human PAI-1; calculated from the inhibition rates
pIC50: −log10 of the molar value.
Reported property: pIC50

I: CC(C)(C)c1ccc(COc2cc(-c3ccc(OC(F)(F)F)cc3)ccc2CCC(=O)O)cc1
II: Cc1cccc(-c2ccc(OCC(=O)O)c(Oc3ccc(C(C)(C)C)cc3)c2)c1
## Input Which gives the smaller pIC50 number: I or II ? The response must carry the label of the picked entry.
## Output II
(II: 5.68, I: 5.94)

A: CCCCCCC(Oc1cc(-c2ccc(OC(F)(F)F)cc2)ccc1Oc1ccccc1)C(=O)O (centres unmarked)
B: CCCCC(Oc1cc(-c2ccc(OC(F)(F)F)cc2)ccc1Oc1ccccc1)C(=O)O (centres unmarked)
## Input Which gives the smaller pIC50 number: A or B ? The response must carry the label of the picked entry.
## Output B
(B: 5.82, A: 6.13)

I: CC(C)(C)c1ccc(Oc2cccc(-c3ccc(OC(F)(F)F)cc3)c2CCC(=O)O)cc1
II: O=C(O)C(=O)N(CCCCc1ccccc1)c1cc(-c2ccc(OC(F)(F)F)cc2)ccc1OCCCCc1ccccc1
## Input Task for the reader: decide whether I or II has the larger pIC50. The response must carry the label of the picked entry.
## Output II

P: CC(C)c1ccc(Oc2cc(-c3ccc(OC(F)(F)F)cc3)ccc2OCC(=O)O)cc1
Q: CCCCC(Oc1cc(-c2ccc(OC(F)(F)F)cc2)ccc1OCc1ccc(C(C)(C)C)cc1)C(=O)O (centres unmarked)
## Input Task for the reader: decide whether P or Q has the larger pIC50. The response must carry the label of the picked entry.
## Output Q
(Q: 6.01, P: 5.76)

* * *

# System under test: recombinant human PAI-1 (Homo sapiens, UniProt P05121)
# Construct: purchased Molecular Innovations, Inc
# Sequence (P05121 24-402): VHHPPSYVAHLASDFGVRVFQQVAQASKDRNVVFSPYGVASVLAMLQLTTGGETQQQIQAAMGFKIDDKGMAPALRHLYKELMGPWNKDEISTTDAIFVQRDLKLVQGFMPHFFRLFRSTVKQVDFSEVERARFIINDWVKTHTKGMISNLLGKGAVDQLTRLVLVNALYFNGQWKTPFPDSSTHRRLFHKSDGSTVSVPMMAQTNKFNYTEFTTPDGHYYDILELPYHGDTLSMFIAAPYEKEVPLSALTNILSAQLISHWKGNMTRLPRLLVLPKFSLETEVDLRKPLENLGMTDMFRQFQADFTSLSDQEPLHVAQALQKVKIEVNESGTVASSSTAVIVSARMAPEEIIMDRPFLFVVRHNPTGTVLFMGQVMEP
# Run description: Test Example 2: human PAI-1 inhibitory activity (tPA fluorogenic substrate, pH 7.4 HEPES buffer)
# Type: biochemical
# Conditions: human PAI-1; compound concentration 0.1 μM
Reported property: Inhibition Rate of PAI-1 Activity (%)

// known answers, use as guide
CC(C)c1ccc(-c2ccc(/C=C/C(=O)O)c(Oc3ccc(C(C)(C)C)cc3)c2)cc1	14
CC(C)(C)c1ccc(Oc2cc(-c3ccccc3OC(F)(F)F)ccc2/C=C/C(=O)O)cc1	4
CC(C)(C)c1ccc(Sc2cc(-c3ccc(OC(F)(F)F)cc3)ccc2C(=O)O)cc1	4
O=C(O)C(=O)N(CCCCc1ccccc1)c1ccc(N2CCSCC2)c(-c2ccc(OC(F)(F)F)cc2)c1	10
CCC(CC)Oc1ccc(-c2ccc(OCC(=O)O)c(Oc3ccc(C(C)(C)C)cc3)c2)cc1	4

A: CCCCOc1ccc(Oc2cc(-c3ccc(OC(F)(F)F)cc3)ccc2OCC(=O)O)cc1
B: CCCCCOc1ccc(-c2ccc(OC(F)(F)F)cc2)cc1N(CCCCc1cc(C)ccc1C)C(=O)C(=O)O
## Input Which gives the smaller Inhibition Rate of PAI-1 Activity (%) number: A or B ? The response must carry the label of the picked entry.
## Output B

* * *

# System under test: recombinant human PAI-1 (Homo sapiens, UniProt P05121)
# Construct: purchased Molecular Innovations, Inc
# Run description: Test Example 2: human PAI-1 inhibitory activity (tPA fluorogenic substrate, pH 7.4 HEPES buffer)
# Assay type: biochemical
# Conditions: human PAI-1; compound concentration 0.1 μM
Reported property: Inhibition Rate of PAI-1 Activity (%)

CCCCCOc1ccc(-c2ccc(C)cc2)cc1N(CCCCc1ccccc1)C(=O)C(=O)O	19
CC(C)c1ccc(Sc2cc(-c3ccc(OC(F)(F)F)cc3)ccc2/C=C/C(=O)O)cc1	16
CC(C)(C)c1ccc(Oc2cc(-c3ccc(OC(F)(F)F)cc3)ccc2C(=O)O)cc1	14
CCCCCOc1ccc(-c2ccc(OC(F)(F)F)cc2)cc1CN(CC(=O)O)c1ccc(C(C)(C)C)cc1	27
CC(C)c1ccc(-c2ccc(/C=C/C(=O)O)c(Sc3ccc(C(C)(C)C)cc3)c2)cc1	14

A: O=C(O)CCc1ccc(-c2ccc(OC(F)(F)F)cc2)cc1Oc1ccc2ccccc2c1
B: CCCCN(CC(=O)O)c1ccc(-c2ccc(OC(F)(F)F)cc2)cc1Oc1ccc(C(C)(C)C)cc1
C: Cc1cc(C)cc(Oc2cc(-c3ccc(C(C)(C)C)cc3)ccc2/C=C/C(=O)O)c1
D: CC(C)(C)Oc1ccc(Oc2cc(-c3ccc(OC(F)(F)F)cc3)ccc2CCC(=O)O)cc1
## Input Place the items in sequence of falling Inhibition Rate of PAI-1 Activity (%). Please write the labels in the order that was asked for.
## Output B, D, C, A

* * *

# System under test: recombinant human PAI-1 (Homo sapiens)
# Construct: purchased Molecular Innovations, Inc
# Run description: Test Example 2: human PAI-1 inhibitory activity (tPA fluorogenic substrate, pH 7.4 HEPES buffer)
# Type: biochemical
# Conditions: human PAI-1; compound concentration 0.3 μM
Reported property: Inhibition Rate of PAI-1 Activity (%)

CC(C)(C)c1ccc(Oc2cc(OCC(=O)O)cc(-c3ccc(OC(F)(F)F)cc3)c2)cc1	27
CCCCCN(C(=O)C(=O)O)c1cc(-c2ccc(OC(F)(F)F)cc2)ccc1OCCCOc1ccccc1	20
O=C(O)/C=C/c1ccc(-c2ccc(OC(F)(F)F)cc2)cc1OC(c1ccccc1)c1ccccc1	9
CCCCCOc1ccc(-c2cc(C)cc(C)c2)cc1N(CCCCc1ccccc1)C(=O)C(=O)O	15

1: CCCCCOc1ccc(-c2ccc(OC(F)(F)F)cc2)cc1N(CCCOCc1ccccc1)C(=O)C(=O)O
2: Cc1cc(C)cc(COc2ccc(-c3ccc(OC(F)(F)F)cc3)cc2N(CCCCc2ccccc2)C(=O)C(=O)O)c1
## Input Task for the reader: decide whether 1 or 2 has the larger Inhibition Rate of PAI-1 Activity (%). The response must carry the label of the picked entry.
## Output 2
(2: 28%, 1: 0%)

* * *

# System under test: recombinant human PAI-1 (Homo sapiens)
# Construct: purchased Molecular Innovations, Inc
# Run description: Test Example 1: human PAI-1 inhibitory activity (tPA fluorogenic substrate, pH 7.5 Tris buffer)
# Assay type: biochemical
# Conditions: Compound Concentration 5 μM; Tris buffer
Reported property: Inhibition Rate of PAI-1 Activity (%)

// known answers, use as guide
O=C(O)CCc1cc(OCc2ccc(OC(F)(F)F)cc2)ccc1OCc1ccc(OC(F)(F)F)cc1	14
CC(C)(C)c1ccc(CN(C(=O)C(=O)O)c2ccccc2Sc2ccc(OC(F)(F)F)cc2)cc1	58
Cc1cc(-c2ccc(OC(F)(F)F)cc2)cc(N(Cc2ccc(C(C)(C)C)cc2)C(=O)C(=O)O)c1	56

P: CC(C)(C)c1ccc(CN(C(=O)C(=O)O)c2cccc(OCc3ccc(OC(F)(F)F)cc3)c2)cc1
Q: O=C(O)/C=C/c1cc(-c2ccc(OC(F)(F)F)cc2)ccc1OCc1cccc(C(F)(F)F)c1
R: COc1ccc(-c2ccc(N(Cc3ccc(C(C)(C)C)cc3)C(=O)C(=O)O)cc2)cc1
## Input Place the items in sequence of falling Inhibition Rate of PAI-1 Activity (%). Please write the labels in the order that was asked for.
## Output P, Q, R

a: CCCCCOc1ccc(-c2ccc(OC(F)(F)F)cc2)cc1N(Cc1ccccc1)C(=O)C(=O)O
b: CC(C)c1ccc(Oc2ccc(/C=C\C(=O)O)c(Oc3ccc(C(C)C)cc3)c2)cc1
## Input Task for the reader: decide whether a or b has the larger Inhibition Rate of PAI-1 Activity (%). The response must carry the label of the picked entry.
## Output a
(a: 77%, b: 13%)

1: CC(C)(C)c1ccc(COc2c(/C=C/C(=O)O)cccc2-c2ccc(OC(F)(F)F)cc2)cc1
2: CC(C)(C)c1ccc(Oc2ccc(-c3ccc(OC(F)(F)F)cc3)cc2C=CC(=O)O)cc1
## Input Which gives the smaller Inhibition Rate of PAI-1 Activity (%) number: 1 or 2 ? The response must carry the label of the picked entry.
## Output 1

I: CC(C)(C)c1ccc(COc2ccc(-c3ccccc3OC(F)(F)F)cc2CCC(=O)O)cc1
II: CN(C(=O)C(=O)O)c1ccc(OCc2ccc(OC(F)(F)F)cc2)c(OCc2ccc(OC(F)(F)F)cc2)c1
III: CC(C)(C)c1ccc(CN(C(=O)C(=O)O)c2ccc(-c3ccc(C(F)(F)F)cc3)cc2)cc1
IV: CCCCCN(C(=O)C(=O)O)c1ccc(-c2ccc(OC(F)(F)F)cc2)cc1
## Input Place the items in sequence of falling Inhibition Rate of PAI-1 Activity (%). Please write the labels in the order that was asked for.
## Output I, II, III, IV

Values from patent US8633245B2
